Molecular target: T1, NHB vaspin (nonheparin-binding) (Homo sapiens, UniProt Q8IW75 21-414, K131A;K188A;R211A;K359A;R363A)
T1 sequence: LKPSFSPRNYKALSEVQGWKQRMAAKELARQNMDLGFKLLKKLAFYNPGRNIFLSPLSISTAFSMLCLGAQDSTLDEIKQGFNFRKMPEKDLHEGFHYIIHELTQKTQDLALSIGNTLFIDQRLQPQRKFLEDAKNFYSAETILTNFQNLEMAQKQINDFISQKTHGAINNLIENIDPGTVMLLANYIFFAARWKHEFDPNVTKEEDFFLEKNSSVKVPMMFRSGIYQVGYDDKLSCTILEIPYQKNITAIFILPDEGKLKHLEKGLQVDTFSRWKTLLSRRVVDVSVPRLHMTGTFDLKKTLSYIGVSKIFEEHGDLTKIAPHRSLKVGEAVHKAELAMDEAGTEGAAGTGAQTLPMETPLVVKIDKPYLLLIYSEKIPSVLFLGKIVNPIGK
Assay: DRaCALA; Buffer 2; DRaCALA: Buffer 2, 20 mM Tris/HCl pH 7.8, 15 mM NaCl, 50 nM labeled ssDNA, 10 min at 20 C; screening also in Buffer 1 (20 mM Tris/HCl pH 7.8, 150 mM NaCl) and Buffer 3 (20 mM Tris/HCl pH 7.8, 15 mM KCl)
Conditions: protein: recombinant; label: 5'-32P
pKd: −log10 of the molar value.

Binder	pKd
60 base ssDNA (ssDNA) DNA: GACGGATCGGGAGATCTCCCGATCCCCTATGGTGCACTCTCAGTACAATCTGCTCTGATG	6.73
GACGGATCGGGAGATCTCCC (ssDNA) [20 base ssDNA]	6.57
120 base ssDNA (ssDNA) DNA: GACGGATCGGGAGATCTCCCGATCCCCTATGGTGCACTCTCAGTACAATCTGCTCTGATGCCGCATAGTTAAGCCAGTATCTGCTCCCTGCTTGTGTGTTGGAGGTCGCTGAGTAGTGCG	6.75
